# Ki measurements, system: Vasopressin V2 receptor (Homo sapiens)
# Sequence (P30518 whole entry): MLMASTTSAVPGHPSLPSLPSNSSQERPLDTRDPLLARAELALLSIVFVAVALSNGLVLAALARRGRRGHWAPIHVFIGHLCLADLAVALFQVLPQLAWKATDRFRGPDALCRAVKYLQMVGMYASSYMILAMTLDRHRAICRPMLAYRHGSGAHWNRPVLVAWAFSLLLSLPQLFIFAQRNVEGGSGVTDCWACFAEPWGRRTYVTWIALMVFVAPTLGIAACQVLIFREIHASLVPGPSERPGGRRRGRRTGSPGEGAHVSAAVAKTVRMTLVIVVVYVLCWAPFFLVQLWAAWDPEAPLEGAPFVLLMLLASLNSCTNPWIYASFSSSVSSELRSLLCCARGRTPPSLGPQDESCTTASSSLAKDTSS
Give just the numeric value; µM need not be written.

In one line, give reported Ki of the entry `Cc1nnc(-c2ccc(-c3ccccc3)cc2)n1-c1ccccc1OCCC1CCNCC1` .
8.17

Read the entry `Cc1cccc(OCCCCCCN2CCN(C)CC2)c1-n1c(C)nnc1-c1ccc(-c2ccccc2)cc1` and write its reported Ki.
14.4

Item `Cc1nnc(-c2ccc(-c3ccccc3)cc2)n1-c1ccccc1OCCCCCCCCCCN1CCN(C)CC1` : provide Ki
14.3

Specify measured Ki for `Cc1nnc(-c2ccc(-c3ccccc3)cc2)n1-c1ccccc1OCCCCCCN1CCCCC1` .
6.93

###

testDetails: Selectivity ratio of affinity at human Vasopressin V2 receptor to that of human Vasopressin V1a receptor.
Label true (1) when Ratio is at or above 1000; otherwise label false (0).

Given `Cc1cccc(OCc2ccc(C(=O)N3CCC(N4CCCCC4)CC3)cc2)c1-n1c(C)nnc1-c1ccc(-c2ccccc2)cc1` , state whether its Ratio is at least 1000.
true (1)

Given `Cc1nnc(-c2ccc(-c3ccccc3)cc2)n1-c1ccccc1OCCCCN1CCN(C)CC1` , state whether its Ratio is at least 1000.
false (0)

Check if Ratio >= 1000 (inclusive). Item: `Cc1nnc(-c2ccc(-c3ccccc3)cc2)n1-c1ccccc1OCCCCCCCCN1CCN(C)CC1`
false (0)

// inclusive: Ratio at least 1000? input: `Cc1nnc(-c2ccc(-c3ccccc3)cc2)n1-c1ccccc1OCCCN1CCN(C)CC1`
false (0)

Threshold query (Ratio >= 1000) on `Cc1nnc(-c2ccc(-c3ccccc3)cc2)n1-c1ccccc1OCCCCCCn1ccnc1`
true (1)

Determine whether this molecule has Ratio no lower than 1000: `Cc1nnc(-c2ccc(-c3ccccc3)cc2)n1-c1ccccc1OCCCCCCN1CCC(N2CCCCC2)CC1`
false (0)

Can `CN(C)C1CCN(C(=O)/C=C2/c3ccccc3N(C(=O)c3ccc(NC(=O)c4ccccc4-c4ccccc4)cc3)CCC2(F)F)CC1` be said to have Ratio at or above 1000?
false (0)

Check the entry `COc1ccccc1-n1c(C)nnc1-c1ccc(-c2ccccc2)cc1` : does Ratio equal or exceed 1000?
false (0)

For this molecule, is measured Ratio 1000 or higher? `Cc1nnc(-c2ccc(-c3ccccc3)cc2)n1-c1ccccc1OCCCCCCN1CCCCC1`
false (0)

In plain terms: is recorded Ratio at least 1000 for `Cc1cccc(OCCCCCCN2CCN(C)CC2)c1-n1c(C)nnc1-c1ccc(-c2ccccc2)cc1` ?
true (1)

Evaluate `Cc1nnc(-c2ccc(-c3ccccc3)cc2)n1-c1ccccc1OCCCCCN1CCN(C)CC1` : Ratio at minimum 1000?
true (1)

Does the molecule `Cc1nnc(-c2ccc(-c3ccccc3)cc2)n1-c1ccccc1OCc1ccc(C(=O)N2CCN(C)CC2)cc1` have recorded Ratio that is 1000 or more?
false (0)

Does the molecule `Cc1cccc(OCc2ccc(C(=O)N3CCN(C)CC3)cc2)c1-n1c(C)nnc1-c1ccc(-c2ccccc2)cc1` have recorded Ratio that is 1000 or more?
true (1)

Kindly determine if Ratio recorded for `Cc1nnc(-c2ccc(-c3ccccc3)cc2)n1-c1ccccc1OCCCCCCN1CCN(C)CC1` is above or exactly 1000.
true (1)

# bool: Ratio of `Cc1nnc(-c2ccc(-c3ccccc3)cc2)n1-c1ccccc1OCCCCCCCCCCN1CCN(C)CC1` >= 1000
false (0)

Please check the record `Cc1nnc(-c2ccc(-c3ccccc3)cc2)n1-c1ccccc1OCCC1CCNCC1` and state if its Ratio is at or above 1000.
false (0)

Is the recorded value of Ratio equal to or greater than 1000 for this molecule? `Cc1nnc(-c2ccc(-c3ccccc3)cc2)n1-c1ccccc1OCCCCC1CCNCC1`
true (1)

Reported Ratio at or above 1000? `Cc1nnc(-c2ccc(-c3ccccc3)cc2)n1-c1ccccc1OCCCC1CCNCC1`
false (0)

Is Ratio for `Cc1nnc(-c2ccc(-c3ccccc3)cc2)n1-c1ccccc1OCCCCCC(=O)N1CCN(C)CC1` at or above 1000?
false (0)

Please tell me: is the molecule `Cc1nnc(-c2ccc(-c3ccccc3)cc2)n1-c1ccccc1OCCCCCCCN1CCN(C)CC1` at or over 1000 in terms of Ratio?
false (0)

###

I'd appreciate it if you could supply Ki values for the items below.

Report value: Ki, system: Vasopressin V2 receptor (Rattus norvegicus, UniProt Q00788), compound: `Cc1cccc(OCc2ccc(C(=O)N3CCC(N4CCCCC4)CC3)cc2)c1-n1c(C)nnc1-c1ccc(-c2ccccc2)cc1`
Sequence (Q00788 whole entry): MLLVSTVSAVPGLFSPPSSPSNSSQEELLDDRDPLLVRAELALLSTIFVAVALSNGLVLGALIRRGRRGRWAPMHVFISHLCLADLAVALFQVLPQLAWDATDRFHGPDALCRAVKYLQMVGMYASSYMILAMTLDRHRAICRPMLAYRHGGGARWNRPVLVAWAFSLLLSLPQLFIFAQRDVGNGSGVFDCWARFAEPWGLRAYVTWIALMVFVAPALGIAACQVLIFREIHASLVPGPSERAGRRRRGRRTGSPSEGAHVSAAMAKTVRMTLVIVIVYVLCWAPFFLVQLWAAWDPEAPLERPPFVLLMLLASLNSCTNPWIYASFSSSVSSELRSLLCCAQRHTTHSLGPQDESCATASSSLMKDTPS
1840 nM

Provide Ki, system Vasopressin V2 receptor (Rattus norvegicus, UniProt Q00788), entry `CC(=O)NCCCOc1ccc(C(=O)N2CCC(N3C(=O)CCc4ccccc43)CC2)cc1`
> 10000 nM

###

targetEntity: Vasopressin V1a receptor (Rattus norvegicus)
Sequence (P30560 whole entry): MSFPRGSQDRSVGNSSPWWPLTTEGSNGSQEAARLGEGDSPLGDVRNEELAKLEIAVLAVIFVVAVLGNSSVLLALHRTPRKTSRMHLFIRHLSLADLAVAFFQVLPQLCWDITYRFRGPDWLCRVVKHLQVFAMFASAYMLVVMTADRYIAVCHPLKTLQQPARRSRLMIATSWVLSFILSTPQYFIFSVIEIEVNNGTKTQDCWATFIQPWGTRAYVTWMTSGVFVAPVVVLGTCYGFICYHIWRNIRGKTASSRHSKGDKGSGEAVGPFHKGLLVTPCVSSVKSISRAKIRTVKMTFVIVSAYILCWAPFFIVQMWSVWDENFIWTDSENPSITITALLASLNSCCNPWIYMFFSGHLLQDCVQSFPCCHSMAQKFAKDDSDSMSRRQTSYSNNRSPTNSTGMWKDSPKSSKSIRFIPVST
testDetails: Binding affinity at Vasopressin V1a receptor, performed using [3H]AVP on rat liver
Task for the reader: assign each of the following molecules its reported Ki.
Give your result in nM as a bare value.

Determine from records and report Ki for `Cc1cccc(OCCCCCCN2CCN(C)CC2)c1-n1c(C)nnc1-c1ccc(-c2ccccc2)cc1`
102

In one line, give reported Ki of the entry `Cc1nnc(-c2ccc(-c3ccccc3)cc2)n1-c1ccccc1OCCCCCCN1CCC(N2CCCCC2)CC1` .
9.69
